biological target: human ether-à-go-go-related gene (hERG) potassium channel (human, UniProt Q12809); test: primary screen, population patch clamp on CHO cells stably expressing hERG; higher = less effect of the substance
Sequence (Q12809 whole entry, looked up): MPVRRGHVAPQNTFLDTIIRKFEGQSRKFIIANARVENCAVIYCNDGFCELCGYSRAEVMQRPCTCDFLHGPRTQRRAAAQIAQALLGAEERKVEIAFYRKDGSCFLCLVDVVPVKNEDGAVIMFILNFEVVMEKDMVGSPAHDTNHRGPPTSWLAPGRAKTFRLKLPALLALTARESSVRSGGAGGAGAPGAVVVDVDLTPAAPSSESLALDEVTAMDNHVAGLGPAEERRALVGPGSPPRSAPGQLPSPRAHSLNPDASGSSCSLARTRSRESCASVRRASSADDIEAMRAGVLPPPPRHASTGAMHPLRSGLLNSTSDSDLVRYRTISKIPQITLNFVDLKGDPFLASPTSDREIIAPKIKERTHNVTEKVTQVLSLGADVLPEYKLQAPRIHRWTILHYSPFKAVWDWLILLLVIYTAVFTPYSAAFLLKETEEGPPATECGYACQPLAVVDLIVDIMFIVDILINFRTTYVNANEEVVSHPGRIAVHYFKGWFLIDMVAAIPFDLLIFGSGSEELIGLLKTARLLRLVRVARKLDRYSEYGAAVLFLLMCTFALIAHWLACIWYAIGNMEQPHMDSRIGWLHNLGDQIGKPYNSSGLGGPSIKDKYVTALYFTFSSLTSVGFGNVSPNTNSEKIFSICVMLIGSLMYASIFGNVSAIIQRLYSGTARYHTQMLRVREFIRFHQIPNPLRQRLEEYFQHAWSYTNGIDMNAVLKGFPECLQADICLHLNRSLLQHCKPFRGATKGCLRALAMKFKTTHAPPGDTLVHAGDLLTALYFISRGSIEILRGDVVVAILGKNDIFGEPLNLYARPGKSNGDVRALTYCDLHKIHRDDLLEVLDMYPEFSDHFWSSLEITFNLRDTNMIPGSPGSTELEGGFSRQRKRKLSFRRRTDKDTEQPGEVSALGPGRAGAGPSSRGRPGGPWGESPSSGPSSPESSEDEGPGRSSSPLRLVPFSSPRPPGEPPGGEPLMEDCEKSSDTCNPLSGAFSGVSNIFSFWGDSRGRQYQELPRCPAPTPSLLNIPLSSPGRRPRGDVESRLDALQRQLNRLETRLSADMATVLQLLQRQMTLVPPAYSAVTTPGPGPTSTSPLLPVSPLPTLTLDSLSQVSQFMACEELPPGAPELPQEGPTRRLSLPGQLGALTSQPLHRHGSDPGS
Screen size: about 310,000 compounds; about 2,200 (0.71%) showed an effect of 50% or more. Effects have a minus sign here. For the sample, strong results were picked, then their nearest neighbours and some compounds at random.
Tick True if hERG current change (%, negative = inhibition) at 1uM is -50% or greater. Tick False if hERG current change (%, negative = inhibition) at 1uM is less than -50%.

[
  {
    "Chem smiles": "COCCCn1c(C(=O)N2CCOCC2)cc2c(=O)n3ccccc3nc21",
    "Tgt": "human ether-à-go-go-related gene (hERG) potassium channel (human, UniProt Q12809)",
    "Discrete label": "True"
  },
  {
    "Chem smiles": "N#Cc1cc2c(=O)n3ccccc3nc2n(Cc2cccnc2)c1=O",
    "Tgt": "human ether-à-go-go-related gene (hERG) potassium channel (human, UniProt Q12809)",
    "Discrete label": "True"
  },
  {
    "Chem smiles": "CCCn1c(=NC(C)=O)c(C(=O)OCC)cc2c(=O)n3ccccc3nc21",
    "Tgt": "human ether-à-go-go-related gene (hERG) potassium channel (human, UniProt Q12809)",
    "Discrete label": "True"
  }
]

Data request: # bool: hERG current change (%, negative = inhibition) at 1uM of `N=c1c(S(=O)(=O)c2ccccc2)cc2c(=O)n3ccccc3nc2n1Cc1cccnc1` >= -50%
Data returned: True

Data request: # bool: hERG current change (%, negative = inhibition) at 1uM of `COCCCn1c(=N)c(C(=O)NCc2ccc3c(c2)OCO3)cc2c(=O)n3ccccc3nc21` >= -50%
Data returned: False

====

target: human ether-à-go-go-related gene (hERG) potassium channel (human); experiment: primary screen, population patch clamp on CHO cells stably expressing hERG; higher = less effect of the substance
Hit rate of the full screen: of about 310,000 compounds, about 2,200 (0.71%) showed an effect of 50% or more. The effect is printed as a negative number. Only a selection was taken, and strong results are over-represented in it overall.
Field: hERG current change (%, negative = inhibition) at 1uM. Provide a value for each of the compounds that follow.
One number for each entry, in %.

Value sought for every listed compound: hERG current change (%, negative = inhibition) at 1uM.
1. Cc1cccc(NC(=O)c2cc3c(=O)n4ccccc4nc3s2)c1
2. COc1ccc(-c2csc(/C=C/c3ccc4c(c3)OCO4)n2)cc1OC
3. COc1cccc(NC(=O)c2cc3c(=O)n4ccccc4nc3n(CC(C)C)c2=N)c1

Data returned:
11.5
2.68
-87.5

====

Field: hERG current change (%, negative = inhibition) at 1uM. Provide a value for each of the compounds that follow.
Molecular target: human ether-à-go-go-related gene (hERG) potassium channel (human, UniProt Q12809)
Assay: primary screen, population patch clamp on CHO cells stably expressing hERG; higher = less effect of the substance
Source text: Briefly, Chinese hamster ovary (CHO) cells stably expressing the hERG channel were dislodged from tissue culture flasks and dispensed into PPC plates. […] Small molecule effects on hERG current density were quantified by […].
Hit rate of the full screen: of about 310,000 compounds, about 2,200 (0.71%) showed an effect of 50% or more. Effects have a minus sign here. The sample holds strong results, similar compounds and a random draw of the others, so the mix is not that of the screen.
Your reply should be a number followed by the unit it is expressed in.

In the examples that follow, each entry is paired with its recorded hERG current change (%, negative = inhibition) at 1uM.
[
  {
    "Compound": "O=C(CCC(=O)N1CCOc2ccc(Cl)cc21)NCCCN1CCC(Cc2ccccc2)CC1",
    "Result": "-64.7%"
  },
  {
    "Compound": "Cc1ccc(-c2nnn(CC(=O)NCCC3=CCCCC3)n2)cc1",
    "Result": "18.4%"
  },
  {
    "Compound": "Cl.N=c1n(CCN2CCCC2)c2ccccc2n1CC(O)c1ccc(Cl)c(Cl)c1 (stereo not shown)",
    "Result": "-33.2%"
  },
  {
    "Compound": "CC(C)C(c1nnnn1Cc1ccccc1)N(CCCO)Cc1cc2cc3c(cc2[nH]c1=O)OCO3 (stereo not shown)",
    "Result": "10.4%"
  },
  {
    "Compound": "Cl.N=c1n(CCN2CCCCC2)c2ccccc2n1CC(O)c1cccc(Br)c1 (stereo not shown)",
    "Result": "-41.7%"
  },
  {
    "Compound": "Cc1ccc2c(c1)N(C(=O)CCC(=O)NCCCN1CCOCC1)CCO2",
    "Result": "13.9%"
  }
]

Value sought for every listed compound: hERG current change (%, negative = inhibition) at 1uM.
1. CCN1CCN(CCCNC(=O)CCC(=O)N2CCOc3ccc(Cl)cc32)CC1
2. CC1Cn2c(nnc2C23CC4CC(CC(C4)C2)C3)S1 (stereo not shown)
3. COc1ccccc1Nc1ncnc2ccc(C)cc12
4. O=C(CSCc1c(F)cccc1Cl)NCC1CCCO1 (stereo not shown)

Data returned:
6.48%
7.65%
12.7%
-1.83%
